Biological target: T1, P26 (human, UniProt P02771 381-609, limits assumed)
T1 construct: also called AFP p26
T1 sequence: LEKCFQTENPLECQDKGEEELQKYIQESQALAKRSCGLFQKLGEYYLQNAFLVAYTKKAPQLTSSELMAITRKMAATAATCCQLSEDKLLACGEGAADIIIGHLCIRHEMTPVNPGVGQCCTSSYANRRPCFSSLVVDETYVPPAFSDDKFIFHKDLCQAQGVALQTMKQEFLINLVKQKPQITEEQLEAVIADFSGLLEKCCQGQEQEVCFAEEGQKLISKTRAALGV
Assay: ELISA, format not described
Parameters: unit not given here

Binder	ELISA_avg
D domain SEQ ID NO: 898 (designed binder) MGSWLEFHSRLDAIDTRLWALGGSEAELAAFEKEIAAFESELQAYKGKGNPEVEKLREHAAAIRHYLQAYRHN	30.8
D domain SEQ ID NO: 976 (designed binder) MGSWAVFKDSLAHIKDVLEALGGSEAELALFEMDIAWFEYVLQDYKGKGNPEVEALRKEAAAIRDELQAYRHN	24.1
D domain SEQ ID NO: 878 (designed binder) MGSWSEFVKRLDAIDQRLWALGGSEAELAAFEKEIAAFESELQAYKGKGNPEVESLRVHAAAIRAWLQAYRHN	27
D domain SEQ ID NO: 962 (designed binder) MGSWQIFKQDLAAIKDYLEALGGSEAELAIFEFDIAWFEHMLQWYKGKGNPEVEALRKEAAAIRDELQAYRHN	17.4
D domain SEQ ID NO: 935 (designed binder) MGSWVLFKDYLADIKHYLEALGGSEAELANFEHLIANFEGDLQTYKGKGNPEVEALRKEAAAIRDELQAYRHN	13.8
